system: NCI-H460 lung; assay: NCI tumour cell line growth inhibition, 48 h
Catalogue of TGI readings, one per entry.

Look over these answered cases.
{"Compound": "COC(=O)C(=O)C(C(=O)C(=O)Nc1ccccc1[N+](=O)[O-])c1nc2ccc([N+](=O)[O-])cc2[nH]c1=O (stereo not given)", "TGI": "> 100 µM"}
{"Compound": "O=Nc1c(-c2c(O)[nH]c3ccc(I)cc23)[nH]c2ccccc12", "TGI": "> 47.4 µM"}
{"Compound": "COc1cc(S(=O)(=O)Nc2nc(-c3ccc(N4C(=O)C(C)SC4c4ccccc4O)cc3)cs2)ccc1Cl (stereo not given)", "TGI": "> 100 µM"}
{"Compound": "O=C(O)Cn1c2c(c3c1-c1ccccc1C3=O)C(=O)CCC2", "TGI": "> 100 µM"}

Turning now to a further compound:
-- ask // lookup TGI for C=C(CN(CC)CC)C1(c2ccccc2)CC2(CCCC2)C(=O)O1 (stereo not given)
-- reply > 100 µM

====

tested on: SNB-75 CNS; assay: NCI tumour cell line growth inhibition, 48 h
Catalogue of TGI readings, one per entry.

Look over these answered cases.
{"Molecule": "COc1cc(S(=O)(=O)Nc2nc(-c3ccc(N4C(=O)C(C)SC4c4ccccc4O)cc3)cs2)ccc1Cl (centres undefined)", "System": "SNB-75 CNS", "TGI": "> 100 µM"}
{"Molecule": "CCOC(=O)c1c(N2CCCC2)[nH]c(=O)c(C(c2ccc(N(C)C)cc2)c2c(O)c(C(=O)OCC)c(N3CCCC3)[nH]c2=O)c1O", "System": "SNB-75 CNS", "TGI": "> 100 µM"}
{"Molecule": "Cn1c2ccc(Cl)cc2c2ccc3c(c21)C(=O)C=CC3=O", "System": "SNB-75 CNS", "TGI": "> 10 µM"}

-- ask // lookup TGI for Nc1c(C(=O)c2cccc(C(O)CO)c2)cnn1-c1ccc(F)cc1 (centres undefined)
-- reply > 25 µM

====

Catalogue of TGI readings, one per entry.
test system: UACC-62 melanoma; experiment: NCI tumour cell line growth inhibition, 48 h

Look over these answered cases.
{"Molecule": "CC(=O)CC(=O)N1CCSC1=S", "Result": "> 10 µM"}
{"Molecule": "COc1ccc(-n2c(N)c(C#N)c(C#N)c2-c2ccco2)cc1", "Result": "> 100 µM"}
{"Molecule": "NC1CCCCC1NCCNC1CCCCC1N (configuration not stated)", "Result": "> 100 µM"}
{"Molecule": "O=C1C=C(N2CCN(c3ncccn3)CC2)C(=O)c2c(O)ccc(O)c21", "Result": "> 100 µM"}
{"Molecule": "COc1ccc(NC(=O)CC(=O)N/N=C(\\C)c2cc3ccccc3oc2=O)cc1", "Result": "> 100 µM"}
{"Molecule": "Cc1nc(NS(=O)(=O)c2ccc(NCN3C(=O)c4ccccc4C3=O)cc2)oc1C", "Result": "> 100 µM"}

-- ask // lookup TGI for `O=c1cc[nH]cc1-c1c[nH]ccc1=O`
-- reply > 100 µM

-- ask Further, for `O=C1CCCCC/C1=C\c1cccc(F)c1` ?
-- reply > 100 µM

-- ask Further, for `c1ccc2c(Nc3ncco3)cccc2c1` ?
-- reply > 10 µM

-- ask Further, for `CCOc1ccc2nc3nc(=O)[nH]c(C)c3c(NC(C)(CO)CO)c2c1` ?
-- reply > 100 µM

-- ask Further, for `O=c1cc(-c2ccccc2)oc2c1ccc1[nH]c3ccccc3c(=O)c12` ?
-- reply > 100 µM

-- ask Further, for CC(=O)OCC1OC(n2c(=O)[nH]c(=O)c3n[nH]nc32)C(OC(C)=O)C(OC(C)=O)C1OC(C)=O (configuration not stated) ?
-- reply > 100 µM

====

tested on: UACC-62 melanoma; experiment: NCI tumour cell line growth inhibition, 48 h
Measurement Kind: TGI

Look over these answered cases.
{"Compound": "O=c1[nH]c2ccccc2c(O)c1/C=N/C(=S)NC1CCCCC1", "System": "UACC-62 melanoma", "TGI": "> 100 µM"}
{"Compound": "C=C(Br)C[N+]12CN3CN(CN(C3)C1)C2", "System": "UACC-62 melanoma", "TGI": "> 100 µM"}

Turning now to a further compound:
-- ask Checklist item: TGI tested on UACC-62 melanoma, entry CS(=O)(=O)c1ccc(COP(N)(=O)N(CCCl)CCCl)cc1 (stereo not drawn) , value?
-- reply > 100 µM

====

Catalogue of TGI readings, one per entry.
tested on: SK-MEL-5 melanoma; assay: NCI tumour cell line growth inhibition, 48 h

{"Molecule": "O=Nc1c(-c2c(O)[nH]c3ccc(I)cc23)[nH]c2ccccc12", "TGI": "> 100 µM"}

-- ask // lookup TGI for `CC(=O)CC(=O)N1CCSC1=S`
-- reply > 10 µM

-- ask Further, for `Cc1nc(NS(=O)(=O)c2ccc(NCN3C(=O)c4ccccc4C3=O)cc2)oc1C` ?
-- reply > 100 µM

====

Catalogue of TGI readings, one per entry.
tested on: DU-145 prostate; test: NCI tumour cell line growth inhibition, 48 h

Look over these answered cases.
{"Compound Structure": "CCN1CCN(c2cc(C(=O)Nc3cccc(Nc4ccc5c(OC)cccc5n4)c3)cc(C(F)(F)F)c2)CC1", "TGI": "7.33 µM"}
{"Compound Structure": "O=c1[nH]n(CCc2ccccc2CCl)c2ccc([N+](=O)[O-])cc12", "TGI": "> 100 µM"}
{"Compound Structure": "COc1ccc(OC)c2c(C)ccnc12", "TGI": "> 100 µM"}

-- ask Checklist item: TGI tested on DU-145 prostate, entry `NC(N)=NC(N)=Nc1ccc(C(=O)O)cc1` , value?
-- reply > 100 µM

====

system: IGROV1 ovarian; test: NCI tumour cell line growth inhibition, 48 h
Measurement Kind: TGI

Look over these answered cases.
{"Molecule": "Cc1cc2nc3ccccc3n2c2ccccc12", "TGI": "> 10 µM"}
{"Molecule": "Cc1nc2ccc(Br)cc2c(=O)n1-c1ccc(N)cc1", "TGI": "> 100 µM"}
{"Molecule": "CCOC(=O)[C@@]12C(C)=CC(=O)O[C@]1(C)C1C(=O)NC(=O)C12 (stereo partly drawn)", "TGI": "> 100 µM"}
{"Molecule": "CC(/C=C/C(=O)c1sc(C(N)=S)nc1C)=C\\c1ccccc1", "TGI": "> 100 µM"}
{"Molecule": "O=c1cc(-c2ccccc2)[nH]c2c1CCCC2", "TGI": "> 100 µM"}
{"Molecule": "N#CC1=C(N)NC(N2CCOCC2)=NC12Nc1ccccc1O2 (stereo not drawn)", "TGI": "57.5 µM"}

-- ask // lookup TGI for `Cn1c2ccc(Cl)cc2c2ccc3c(c21)C(=O)C=CC3=O`
-- reply > 10 µM

-- ask Further, for NC1=NC(SCc2ccccc2CCl)c2ncn(Cc3ccccc3CCl)c2N1 (stereo not drawn) ?
-- reply 3.57 µM

====

system: SK-MEL-2 melanoma; test: NCI tumour cell line growth inhibition, 48 h; in the data active = GI50 below about 0.43 µM; inactive = the rest
The reply should be one of these categories: active, inactive

Some solved entries appear below for comparison.
{"Molecule": "Cc1cc(=O)[nH]c(N/N=C/c2ccccc2O)n1", "Category Label": "inactive"}
{"Molecule": "CC12CCC(=O)C(O1)C1C(=O)c3ccc4c(ccc5ccccc54)c3C(=O)C12 (stereo unspecified)", "Category Label": "inactive"}

-- ask // return assay outcome for `Cc1nn(C)c2ncnc(N/N=C/c3cccc(O)c3O)c12`
-- reply inactive

-- ask Further, for `CCC[CH2][Sn]([CH2]CCC)([CH2]CCC)/[C](=C/[Si](C)(C)c1ccccc1)c1ccc2c(c1)OCO2` ?
-- reply inactive

-- ask Further, for CC12OC(C(=O)C13CC3)C1C(=O)c3c(O)ccc(O)c3C(=O)C12 (stereo unspecified) ?
-- reply inactive

-- ask Further, for `CCN1CCN(c2cc(C(=O)Nc3cccc(Nc4ccc5c(OC)cccc5n4)c3)cc(C(F)(F)F)c2)CC1` ?
-- reply inactive

-- ask Further, for O=C1OCC2=C1C(c1cccc(C(F)(F)F)c1)c1cc3c(cc1N2CCO)OCCO3 (stereo unspecified) ?
-- reply inactive

-- ask Further, for Nc1nc(Cl)nc2c1ncn2C1OC(CO)C(O)C1F (stereo unspecified) ?
-- reply inactive

-- ask Further, for `Cc1c(Nc2nccc3cc(CN4CC[C@@H](O)C4)cnc23)cccc1-c1cccc(-c2nc3cc(CN4CC[C@@H](C(=O)O)C4)cc(C#N)c3o2)c1C` ?
-- reply inactive

-- ask Further, for `CN1CCN(C(=O)c2ccc(NC(=O)Nc3ccc(-c4nc(N5CCOCC5)c5cccn5n4)cc3)cc2)CC1` ?
-- reply active

-- ask Further, for C=CC1C(CC2OC(CO)C(O)C(O)C2O)OC=C2C(=O)OCCC21O (stereo unspecified) ?
-- reply inactive
